details: in n-butanol, 308.15 K
Measured Metric: solubility (mole fraction)
# answer = number (no unit)

Field solubility (mole fraction) (entry N#CCc1ccc([N+](=O)[O-])cc1 ) reads 0.00501

* * *

conditions: in acetonitrile, 328.15 K
Measured Metric: solubility (mole fraction)

// field: solubility (mole fraction); key: N#CCc1ccc([N+](=O)[O-])cc1 ; value = 0.196

* * *

settings: in ethanol, 308.15 K
Measured Metric: solubility (mole fraction)

// sample N#CCc1ccc([N+](=O)[O-])cc1 , its solubility (mole fraction) was 0.00654

* * *

settings: in ethanol, 303.15 K
Measured Metric: solubility (mole fraction)
Lab note: record the figure alone, no unit after it.

compound N#CCc1ccc([N+](=O)[O-])cc1 , solubility (mole fraction) observed: 0.00536
